Reported GI50 values for the following compounds.
system: parental Ba/F3 cells; experiment: CCK-8 viability assay, parental Ba/F3 cells; type: cell-based; conditions: Mus musculus, BaF3; CCK8 kit; mean ± SD
Quantity Name: GI50

INSERT INTO assay_data (compound, observed_value) VALUES
  ('CCC(=O)Nc1nc2ccc(NC(=O)COc3ccc(Cl)cc3)cc2s1 [Compound A8]', '> 100 µM'),
  ('CS(=O)(=O)Nc1nc2ccc(NC(=O)COc3ccccc3)cc2s1 [Compound A14]', '37.6 µM'),
  ('CCC(=O)Nc1nc2ccc(NC(=O)COc3ccccc3)cc2s1 [Compound A12]', '> 100 µM'),
  ('Cc1ccc(S(=O)(=O)Nc2nc3ccc(NC(=O)COc4ccccc4)cc3s2)cc1 [Compound A15]', '42.9 µM'),
  ('O=C(COc1ccccc1)Nc1ccc2nc(NC(=O)c3ccccc3)sc2c1 [Compound A13]', '> 100 µM'),
  ('O=C(Nc1ccc(OC(F)(F)Cl)cc1)c1cnc(N2CC[C@@H](O)C2)c(-c2cc[nH]n2)c1 [Asciminib, reference compound]', '> 100 µM');
